Taken from ChEMBL document CHEMBL5506059.

# System: Staphylococcus aureus
# protocol notes: Antibacterial activity against Staphylococcus aureus ATCC 25923 assessed as inhibition of bacterial growth incubated for 24 hrs
# Format: functional
Please go through the items and note down their log10 MIC.
Reminder: these figures are log10 of reported MIC, in µg/mL before transformation.

Items follow; give log10 MIC for each.
1. N#CCc1cc2c(cc1F)c(=O)c(C(=O)O)cn2CC1CCCCC1
2. N#CCc1cc2c(cc1F)c(=O)c(C(=O)O)cn2CC1CC1

Data returned:
1: 2.41; 2: -0.60

Items follow; give log10 MIC for each.
1. Cn1cc(C(=O)O)c(=O)c2cc(F)c(CC#N)cc21
2. CCCCCn1cc(C(=O)O)c(=O)c2cc(F)c(CC#N)cc21
3. C=CCn1cc(C(=O)O)c(=O)c2cc(F)c(CC#N)cc21
4. N#CCc1cc2c(cc1F)c(=O)c(C(=O)O)cn2CC1CCCC1
5. O=C(O)Cc1cc2c(cc1F)c(=O)c(C(=O)O)cn2Cc1ccccn1

Data returned:
[0.00, -0.60, -0.30, 1.81, 1.20]
